Task for the reader: assign each of the following compounds its reported IC50.
# Tested on: HEK293
# protocol_description: Cytotoxicity against HEK293 cells after 4 days by CCK-8 assay
# Type: cell-based
# condition_set: Homo sapiens, HEK293, 96 h
Counter-ions that a name gives are not always drawn.
One number for each entry, in nM.

Recorded IC50, per entry:
COc1cccc2c1C(=O)c1c(O)c3c(c(O)c1C2=O)C[C@@](O)(C(=O)CO)C[C@@H]3O[C@H]1C[C@H](N)[C@H](O)[C@H](C)O1 [DOXORUBICIN HYDROCHLORIDE]; 1220
Oc1cccc(-c2cc(-c3ccccc3O)cc(-c3ccccc3O)n2)c1; 730
Oc1ccc(-c2cc(-c3ccccc3O)cc(-c3ccccc3O)n2)cc1; 6990
Oc1ccc(-c2cc(-c3cccc(O)c3)nc(-c3cccc(O)c3)c2)cc1; 730
COc1cc([C@@H]2c3cc4c(cc3[C@@H](O[C@@H]3O[C@@H]5CO[C@@H](C)O[C@H]5[C@H](O)[C@H]3O)[C@H]3COC(=O)[C@H]23)OCO4)cc(OC)c1O [ETOPOSIDE]; 1040

Provide IC50 for all items below, preserving their order.
1. Oc1ccc(-c2cc(-c3ccc(O)cc3)nc(-c3cccc(O)c3)c2)cc1
2. Oc1ccc(-c2cc(-c3ccccc3O)cc(-c3ccc(O)cc3)n2)cc1
3. Oc1ccc(-c2cc(-c3cccc(O)c3)cc(-c3cccc(O)c3)n2)cc1

1: 840; 2: 780; 3: 1560

Reported IC50 for `Oc1cccc(-c2cc(-c3ccccc3O)nc(-c3ccccc3O)c2)c1` : what is it? 80

* * *

# Tested on: HEK293
# protocol_description: Cytotoxicity against HEK293 cells after 4 days by CCK-8 assay
# Format: cell-based
# condition_set: Homo sapiens, HEK293, 96 h
measured_metric: IC50

Oc1ccc(-c2cc(-c3ccccc3O)nc(-c3ccccc3O)c2)cc1; > 50 µM
Oc1cccc(-c2cc(-c3cccc(O)c3)nc(-c3ccccc3O)c2)c1; > 50 µM
Oc1ccc(-c2cc(-c3cccc(O)c3)cc(-c3ccccc3O)n2)cc1; > 50 µM

Could you share which IC50 value was measured for `Oc1ccc(-c2cc(-c3cccc(O)c3)cc(-c3ccc(O)cc3)n2)cc1` ? > 50 µM
